Value source: patent US20260151327A1

Assay: Cytotoxicity (CC50) in adipose-derived stem cells, 3 days exposure
Type: cell-based
Settings: human, adipose-derived stem cells (ASCs, ATCC PCS-500-011), benzo[a]pyrene, ASCs exposed for 3 days; read-out: CC50 (50% cytotoxicity concentration)
Excerpt: PCS-500-011™ cells (Thermo-Fisher Scientific, USA) were purchased as adipose-derived stem cells (ASCs) used in the experiment, from American Type Culture Collection (ATCC), and subcultured for 3 passages in the MesenPRO RS™ medium and MesenPRO RS™ growth supplement medium (Thermo-Fisher scientific, USA) until the live cells reached 80% to 90% confluency. […]
MEASURED_ENDPOINT: CC50 at 3 days (µM)

{"COMPOUND": "c1ccc2c(c1)cc1ccc3cccc4ccc2c1c34 [benzo[a]pyrene, Benzo[a]pyrene]", "VALUE_OBSERVED": 25}

----------
Tested on: adipose-derived stem cells (ASCs)
Test: Cytotoxicity (CC50) in adipose-derived stem cells, 3 days exposure
Assay type: cell-based
Conditions: benzo[a]pyrene, ASCs exposed for 3 days; read-out: CC50 (50% cytotoxicity concentration)
Description: PCS-500-011™ cells (Thermo-Fisher Scientific, USA) were purchased as adipose-derived stem cells (ASCs) used in the experiment, from American Type Culture Collection (ATCC), and subcultured for 3 passages in the MesenPRO RS™ medium and MesenPRO RS™ growth supplement medium (Thermo-Fisher scientific, USA) until the live cells reached 80% to 90% confluency. […]
MEASURED_ENDPOINT: CC50

{"MOLECULE": "c1ccc2c(c1)cc1ccc3cccc4ccc2c1c34 [benzo[a]pyrene, Benzo[a]pyrene]", "TARGET_ENTITY": "adipose-derived stem cells (ASCs)", "MEASURED_ENDPOINT": "CC50", "VALUE_OBSERVED": "50 µM"}
